Target: Protein kinase C alpha type (Homo sapiens, UniProt P17252)
Test: Inhibition of recombinant PKCa (unknown origin)
quantity: IC50

[Q] Which IC50 is listed for COc1cc2ncnc(Nc3ccc(F)c(Cl)c3)c2cc1NC(=O)/C=C/CN1CCCCC1 [DACOMITINIB ANHYDROUS] ?
[A] > 10 µM

* * *

Molecular target: Serine/threonine-protein kinase Nek6 (Homo sapiens, UniProt Q9HC98)
Sequence (Q9HC98 whole entry): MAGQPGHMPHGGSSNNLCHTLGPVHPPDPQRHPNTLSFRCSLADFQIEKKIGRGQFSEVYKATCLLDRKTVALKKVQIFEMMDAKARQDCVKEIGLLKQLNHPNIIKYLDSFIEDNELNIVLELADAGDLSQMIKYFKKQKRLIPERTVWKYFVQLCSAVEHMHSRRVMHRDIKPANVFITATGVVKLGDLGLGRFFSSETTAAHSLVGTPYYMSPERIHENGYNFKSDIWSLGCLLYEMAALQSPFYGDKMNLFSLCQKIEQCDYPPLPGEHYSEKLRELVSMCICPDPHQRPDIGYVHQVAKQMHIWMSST
Test: Inhibition of recombinant NEK6 (unknown origin)
pIC50: −log10 of the molar value.
quantity: pIC50

[Q] Which pIC50 is listed for COc1cc2ncnc(Nc3ccc(F)c(Cl)c3)c2cc1NC(=O)/C=C/CN1CCCCC1 [DACOMITINIB ANHYDROUS] ?
[A] < 5.00
